- system: Cholecystokinin receptor type A (Homo sapiens, UniProt P32238); note: in other assays of this panel Not Active means under 50% inhibition at 10 µM
- Sequence (P32238 whole entry): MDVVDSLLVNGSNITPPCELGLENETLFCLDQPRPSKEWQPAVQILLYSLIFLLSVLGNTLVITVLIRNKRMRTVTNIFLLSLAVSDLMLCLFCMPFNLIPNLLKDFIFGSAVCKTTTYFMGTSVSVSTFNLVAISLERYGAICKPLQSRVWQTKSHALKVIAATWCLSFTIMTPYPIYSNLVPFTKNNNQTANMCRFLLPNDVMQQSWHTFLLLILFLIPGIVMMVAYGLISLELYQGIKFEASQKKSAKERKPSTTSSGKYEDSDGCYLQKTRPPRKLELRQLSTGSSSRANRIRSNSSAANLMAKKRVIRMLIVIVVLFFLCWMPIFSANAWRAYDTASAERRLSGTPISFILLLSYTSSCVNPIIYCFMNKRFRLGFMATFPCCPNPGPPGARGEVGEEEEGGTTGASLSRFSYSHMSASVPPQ
- Assay type: cell membranes, Membrane
- condition-description: 1321-n1
attribute-measured: IC50

molecule=CNCCc1ccccn1 system="Cholecystokinin receptor type A (Homo sapiens, UniProt P32238)" attribute_measured=IC50 reported_value="Not Active"
molecule=Nc1nc2c(ncn2CCC(CO)CO)c(=O)[nH]1 system="Cholecystokinin receptor type A (Homo sapiens, UniProt P32238)" attribute_measured=IC50 reported_value="Not Active"
molecule=CC[C@]1(O)C[C@H]2CN(CCc3c([nH]c4ccccc34)[C@@](C(=O)OC)(c3cc4c(cc3OC)N(C=O)[C@H]3[C@@](O)(C(=O)OC)[C@H](OC(C)=O)[C@]5(CC)C=CCN6CC[C@]43[C@@H]65)C2)C1 system="Cholecystokinin receptor type A (Homo sapiens, UniProt P32238)" attribute_measured=IC50 reported_value="Not Active"
molecule=CC(=O)O[C@@]12CO[C@@H]1C[C@H](O)[C@@]1(C)C(=O)[C@H](O)C3=C(C)[C@@H](OC(=O)[C@H](O)[C@@H](NC(=O)OC(C)(C)C)c4ccccc4)C[C@@](O)([C@@H](OC(=O)c4ccccc4)[C@H]21)C3(C)C.O.O.O system="Cholecystokinin receptor type A (Homo sapiens, UniProt P32238)" attribute_measured=IC50 reported_value="Not Active"
molecule=Nc1c2c(nc3ccccc13)CCCC2 system="Cholecystokinin receptor type A (Homo sapiens, UniProt P32238)" attribute_measured=IC50 reported_value="Not Active"

Query :: Lab request: please report IC50 under test system Cholecystokinin receptor type A (Homo sapiens, UniProt P32238) for Cc1cccc(N(C)C(=S)Oc2ccc3ccccc3c2)c1 [TOLNAFTATE]; note: in other assays of this panel Not Active means under 50% inhibition at 10 µM
Result :: Not Active

Query :: Would you kindly repeat that for C[C@](N)(Cc1ccc(O)c(O)c1)C(=O)O ?
Result :: Not Active

Query :: Would you kindly repeat that for CC(C)C(Br)C(=O)NC(N)=O (centres undefined) ?
Result :: Not Active

Query :: Would you kindly repeat that for COc1ccc(C[C@H]2NC[C@H](O)[C@H]2OC(C)=O)cc1 ?
Result :: Not Active
